The values you see were collected from patent US20250052767A1.

experimental.system: human CD28 (human, UniProt P10747 19-220, On cells CD28 is a disulfide linked homodimer and a glycoprotein; one copy of the chain is given.)
Sequence (P10747 19-220 limits assumed): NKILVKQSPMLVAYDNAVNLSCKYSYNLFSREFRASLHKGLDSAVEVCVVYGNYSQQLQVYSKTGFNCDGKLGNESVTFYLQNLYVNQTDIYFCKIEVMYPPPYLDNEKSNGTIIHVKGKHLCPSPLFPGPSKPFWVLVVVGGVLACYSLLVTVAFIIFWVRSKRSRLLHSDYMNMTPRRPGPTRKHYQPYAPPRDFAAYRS
experiment.description: cell-based or functional assay
Assign Expansion Index (with anti-CD3 UCHT1) to each entry below.
Answer with a number only.

Memo: exemplary anti-CD28 antibody AB3 (antibody, V domains shown, Mouse hybridoma monoclonal antibody; Conjugated to PE in the staining assays; also called antibody 3; clone 3) VH: KVQLQQSGAGLVKPGASVKLSCKTSGYTFSDYIINWVKQRSGQGLEWIGWFYPGSGSINYNEKFKDKATLTADKSSSTVYMDLSRLTSEDSAVYFCARREDRGGYDAFDYWGQGTTLTVSS VL: DIQMTQSPASLSVSVGETVTITCRASENIYSNLAWYQQKQGKSPQLLVYAATKLADGVPSRFSGSGSGTQYSLRINSLQSEDFGSYYCQHFWGTPWTFGGGTKLEIK , reported Expansion Index (with anti-CD3 UCHT1): 5.11

Reported Expansion Index (with anti-CD3 UCHT1) of exemplary anti-CD28 antibody AB1 (antibody, V domains shown, Mouse hybridoma monoclonal antibody; also called antibody 1; clone 1) VH: QVHLQQSATELARPGASVKMSCKASGYTFTSYTMHWVKQRPGQGLEWIGYIDPGSGYSEFNHKFKDKSTLTADKSSSTAYMQLISLTSEDSAVYYCARRQDNSGYDSFDYWGQGTTLTVSS VL: DIQMTQSPASLSVSVGETVTITCRTSENIYSNLAWYQQKQGKSPQLLVYAATNLADGVSSRFSGSGSGIQYSLKINSLQSEDFGSYYCQHFWGIPWTFGGGTKLEIK : 4.03
